# Test target: SRC (Homo sapiens, UniProt P12931)
# Sequence (P12931 whole entry): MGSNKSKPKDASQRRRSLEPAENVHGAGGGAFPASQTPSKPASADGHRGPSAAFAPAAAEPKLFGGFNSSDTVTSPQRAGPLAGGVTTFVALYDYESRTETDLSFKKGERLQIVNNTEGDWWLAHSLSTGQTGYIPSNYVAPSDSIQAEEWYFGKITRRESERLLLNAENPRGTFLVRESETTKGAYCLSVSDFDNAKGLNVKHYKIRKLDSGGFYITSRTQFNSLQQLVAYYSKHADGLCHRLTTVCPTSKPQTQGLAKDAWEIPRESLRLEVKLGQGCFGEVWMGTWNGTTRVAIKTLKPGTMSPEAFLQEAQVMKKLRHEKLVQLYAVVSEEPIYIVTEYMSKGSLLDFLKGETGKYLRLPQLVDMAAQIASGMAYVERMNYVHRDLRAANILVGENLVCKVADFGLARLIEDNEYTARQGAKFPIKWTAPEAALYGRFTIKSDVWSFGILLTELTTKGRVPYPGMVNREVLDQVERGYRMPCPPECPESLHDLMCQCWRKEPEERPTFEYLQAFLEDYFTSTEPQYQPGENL
Measured attribute: IC50

# input Report IC50 for CCS(=O)(=O)Cc1cnc(Oc2c(F)cc(F)cc2OCCCCOc2ccc(/C=C/c3cc(OC)cc(OC)c3)cc2)c(-c2cc(C)c3c(=O)[nH]ccn23)c1 [BST-4]
# output > 10 µM

* * *

# Test target: SRMS (Homo sapiens, UniProt Q9H3Y6)
# Sequence (Q9H3Y6 whole entry): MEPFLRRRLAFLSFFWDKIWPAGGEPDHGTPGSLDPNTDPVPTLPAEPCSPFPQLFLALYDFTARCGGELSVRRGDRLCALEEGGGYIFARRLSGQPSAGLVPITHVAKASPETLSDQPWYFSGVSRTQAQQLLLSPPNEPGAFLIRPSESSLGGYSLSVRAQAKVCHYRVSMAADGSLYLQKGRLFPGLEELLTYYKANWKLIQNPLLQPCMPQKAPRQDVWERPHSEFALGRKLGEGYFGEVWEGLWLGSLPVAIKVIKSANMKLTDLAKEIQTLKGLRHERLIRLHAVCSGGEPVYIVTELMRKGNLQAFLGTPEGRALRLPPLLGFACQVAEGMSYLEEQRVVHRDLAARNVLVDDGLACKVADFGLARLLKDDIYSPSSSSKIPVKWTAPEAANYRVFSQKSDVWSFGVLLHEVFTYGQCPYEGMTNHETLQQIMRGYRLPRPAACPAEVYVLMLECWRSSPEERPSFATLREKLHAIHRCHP
pIC50: −log10 of the molar value.
Measured attribute: pIC50

# input Supply pIC50 value. Item: "CCS(=O)(=O)Cc1cnc(Oc2c(F)cc(F)cc2OCCCCOc2ccc(/C=C/c3cc(OC)cc(OC)c3)cc2)c(-c2cc(C)c3c(=O)[nH]ccn23)c1"
# output < 5.00

* * *

# Test target: EPHB1 (Homo sapiens)
# Sequence (P54762 18-984): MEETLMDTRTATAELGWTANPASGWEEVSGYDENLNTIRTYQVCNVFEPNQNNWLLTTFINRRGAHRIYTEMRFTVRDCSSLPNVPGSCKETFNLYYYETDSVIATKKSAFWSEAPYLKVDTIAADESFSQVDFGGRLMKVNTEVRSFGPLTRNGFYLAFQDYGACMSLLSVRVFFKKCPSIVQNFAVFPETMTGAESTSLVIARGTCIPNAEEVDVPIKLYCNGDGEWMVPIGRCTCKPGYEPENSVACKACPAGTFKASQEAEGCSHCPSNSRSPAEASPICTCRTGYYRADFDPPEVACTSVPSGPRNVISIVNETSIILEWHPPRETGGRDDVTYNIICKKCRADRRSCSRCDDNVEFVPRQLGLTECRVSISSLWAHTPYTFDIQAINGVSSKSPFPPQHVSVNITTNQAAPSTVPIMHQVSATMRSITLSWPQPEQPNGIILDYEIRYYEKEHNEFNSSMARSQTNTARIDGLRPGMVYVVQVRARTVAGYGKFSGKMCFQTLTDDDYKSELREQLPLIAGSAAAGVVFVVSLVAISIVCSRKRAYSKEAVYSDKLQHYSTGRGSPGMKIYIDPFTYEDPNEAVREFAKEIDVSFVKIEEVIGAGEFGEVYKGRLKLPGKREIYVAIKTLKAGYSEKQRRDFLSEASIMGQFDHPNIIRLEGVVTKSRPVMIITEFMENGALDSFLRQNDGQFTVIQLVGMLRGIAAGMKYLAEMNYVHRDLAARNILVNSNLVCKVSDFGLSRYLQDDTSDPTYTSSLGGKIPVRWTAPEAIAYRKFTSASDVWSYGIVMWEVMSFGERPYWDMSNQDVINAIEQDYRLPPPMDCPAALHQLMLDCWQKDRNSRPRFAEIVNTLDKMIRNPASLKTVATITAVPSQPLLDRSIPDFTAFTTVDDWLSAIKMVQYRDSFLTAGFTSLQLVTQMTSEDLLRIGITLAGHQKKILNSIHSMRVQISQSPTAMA
# Assay comment: SelectScreen Z′-LYTE kinase assay
# Type: biochemical
Measured attribute: IC50

# input Supply IC50 value. Item: "CCS(=O)(=O)Cc1cnc(Oc2c(F)cc(F)cc2OCCCCOc2ccc(/C=C/c3cc(OC)cc(OC)c3)cc2)c(-c2cc(C)c3c(=O)[nH]ccn23)c1"
# output > 10 µM

* * *

# Test target: STAT4 (Homo sapiens, UniProt Q14765)
pKd: −log10 of the molar value.
Measured attribute: pKd

# input Provide pKd value for the following molecule: "CCS(=O)(=O)Cc1cnc(Oc2c(F)cc(F)cc2OCCCCOc2ccc(/C=C/c3cc(OC)cc(OC)c3)cc2)c(-c2cc(C)c3c(=O)[nH]ccn23)c1"
# output < 5.00

* * *

# Test target: PTK2 (Homo sapiens)
# Sequence (Q05397 whole entry): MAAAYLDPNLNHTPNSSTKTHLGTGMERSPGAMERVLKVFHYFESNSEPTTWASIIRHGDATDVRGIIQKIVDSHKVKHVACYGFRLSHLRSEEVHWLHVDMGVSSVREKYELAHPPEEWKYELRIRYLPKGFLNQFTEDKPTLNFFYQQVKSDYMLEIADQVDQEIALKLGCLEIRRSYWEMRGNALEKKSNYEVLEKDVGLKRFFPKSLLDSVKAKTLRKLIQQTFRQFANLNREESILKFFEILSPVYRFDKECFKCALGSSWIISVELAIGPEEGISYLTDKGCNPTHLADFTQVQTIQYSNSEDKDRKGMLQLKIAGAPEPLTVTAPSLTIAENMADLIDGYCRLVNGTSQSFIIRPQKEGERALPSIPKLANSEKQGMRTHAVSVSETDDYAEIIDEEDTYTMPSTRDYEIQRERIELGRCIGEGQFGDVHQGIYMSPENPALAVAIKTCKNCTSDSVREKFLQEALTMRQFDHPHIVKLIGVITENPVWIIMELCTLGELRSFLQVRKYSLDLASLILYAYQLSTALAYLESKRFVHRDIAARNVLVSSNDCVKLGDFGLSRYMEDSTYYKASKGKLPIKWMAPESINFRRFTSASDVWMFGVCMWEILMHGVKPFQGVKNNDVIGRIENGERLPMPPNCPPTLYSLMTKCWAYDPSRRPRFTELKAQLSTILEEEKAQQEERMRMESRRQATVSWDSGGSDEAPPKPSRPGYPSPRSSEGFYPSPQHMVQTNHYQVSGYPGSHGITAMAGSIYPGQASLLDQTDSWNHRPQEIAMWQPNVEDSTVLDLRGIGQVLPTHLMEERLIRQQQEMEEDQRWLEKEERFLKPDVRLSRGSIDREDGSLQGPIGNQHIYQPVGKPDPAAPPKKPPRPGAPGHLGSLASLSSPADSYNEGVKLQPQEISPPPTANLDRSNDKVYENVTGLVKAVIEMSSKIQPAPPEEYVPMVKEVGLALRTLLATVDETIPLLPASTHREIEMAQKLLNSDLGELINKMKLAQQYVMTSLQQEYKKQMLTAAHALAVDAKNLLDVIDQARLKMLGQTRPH
pIC50: −log10 of the molar value.
Measured attribute: pIC50

# input Supply measured pIC50 of CCS(=O)(=O)Cc1cnc(Oc2c(F)cc(F)cc2OCCCCOc2ccc(/C=C/c3cc(OC)cc(OC)c3)cc2)c(-c2cc(C)c3c(=O)[nH]ccn23)c1 [BST-4] in your reply.
# output < 5.00

* * *

# Test target: ITK (Homo sapiens, UniProt Q08881)
# Sequence (Q08881 whole entry): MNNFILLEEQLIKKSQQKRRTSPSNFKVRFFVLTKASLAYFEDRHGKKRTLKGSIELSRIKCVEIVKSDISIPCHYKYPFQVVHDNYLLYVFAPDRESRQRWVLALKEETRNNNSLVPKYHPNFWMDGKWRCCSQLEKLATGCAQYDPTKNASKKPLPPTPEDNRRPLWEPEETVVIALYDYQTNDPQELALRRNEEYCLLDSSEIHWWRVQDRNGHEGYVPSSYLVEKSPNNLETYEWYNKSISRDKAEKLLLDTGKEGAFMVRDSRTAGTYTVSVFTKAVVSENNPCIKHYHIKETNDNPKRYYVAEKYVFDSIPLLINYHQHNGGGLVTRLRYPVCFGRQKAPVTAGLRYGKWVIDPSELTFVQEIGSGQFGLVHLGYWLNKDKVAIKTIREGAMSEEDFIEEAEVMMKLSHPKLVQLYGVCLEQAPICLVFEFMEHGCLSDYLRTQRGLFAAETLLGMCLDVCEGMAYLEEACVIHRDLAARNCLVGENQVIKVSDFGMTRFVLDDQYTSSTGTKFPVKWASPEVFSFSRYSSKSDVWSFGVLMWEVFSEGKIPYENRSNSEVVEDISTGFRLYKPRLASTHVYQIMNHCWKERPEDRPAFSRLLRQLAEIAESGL
pIC50: −log10 of the molar value.
Measured attribute: pIC50

# input Quote pIC50 reported for "CCS(=O)(=O)Cc1cnc(Oc2c(F)cc(F)cc2OCCCCOc2ccc(/C=C/c3cc(OC)cc(OC)c3)cc2)c(-c2cc(C)c3c(=O)[nH]ccn23)c1" please.
# output < 5.00

* * *

# Test target: EPHA5 (Homo sapiens)
# Sequence (P54756 25-1037): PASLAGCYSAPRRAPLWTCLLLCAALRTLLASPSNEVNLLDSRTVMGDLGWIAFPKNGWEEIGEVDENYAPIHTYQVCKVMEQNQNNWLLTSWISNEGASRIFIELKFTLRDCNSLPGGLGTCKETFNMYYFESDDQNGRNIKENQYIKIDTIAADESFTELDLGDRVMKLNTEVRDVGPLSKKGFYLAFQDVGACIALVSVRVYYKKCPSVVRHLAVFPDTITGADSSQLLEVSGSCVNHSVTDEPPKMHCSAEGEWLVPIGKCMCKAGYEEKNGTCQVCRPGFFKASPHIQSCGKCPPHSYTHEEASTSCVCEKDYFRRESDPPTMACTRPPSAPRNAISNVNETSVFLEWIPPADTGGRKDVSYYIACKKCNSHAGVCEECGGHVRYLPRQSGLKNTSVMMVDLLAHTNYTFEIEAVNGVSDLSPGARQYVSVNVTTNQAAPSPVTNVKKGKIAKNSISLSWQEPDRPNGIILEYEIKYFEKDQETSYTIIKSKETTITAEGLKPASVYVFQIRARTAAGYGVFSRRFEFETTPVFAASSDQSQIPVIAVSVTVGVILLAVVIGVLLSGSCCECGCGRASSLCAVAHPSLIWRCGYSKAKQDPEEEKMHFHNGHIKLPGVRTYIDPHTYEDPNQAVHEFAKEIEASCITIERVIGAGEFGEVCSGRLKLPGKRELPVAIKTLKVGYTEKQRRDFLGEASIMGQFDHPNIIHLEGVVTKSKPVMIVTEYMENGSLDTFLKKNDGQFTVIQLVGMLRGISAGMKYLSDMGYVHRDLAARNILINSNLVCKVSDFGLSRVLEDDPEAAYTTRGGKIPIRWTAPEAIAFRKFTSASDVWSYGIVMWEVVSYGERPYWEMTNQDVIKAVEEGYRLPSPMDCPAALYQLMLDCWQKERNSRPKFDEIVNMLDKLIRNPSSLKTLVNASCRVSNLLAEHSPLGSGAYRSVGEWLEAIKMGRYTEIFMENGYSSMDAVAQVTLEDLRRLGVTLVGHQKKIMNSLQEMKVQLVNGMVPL
Measured attribute: IC50

# input Retrieve IC50 on EPHA5 (Homo sapiens); query "CCS(=O)(=O)Cc1cnc(Oc2c(F)cc(F)cc2OCCCCOc2ccc(/C=C/c3cc(OC)cc(OC)c3)cc2)c(-c2cc(C)c3c(=O)[nH]ccn23)c1"
# output > 10 µM

* * *

# Test target: EPHA3 (Homo sapiens, UniProt P29320)
# Sequence (P29320 21-983): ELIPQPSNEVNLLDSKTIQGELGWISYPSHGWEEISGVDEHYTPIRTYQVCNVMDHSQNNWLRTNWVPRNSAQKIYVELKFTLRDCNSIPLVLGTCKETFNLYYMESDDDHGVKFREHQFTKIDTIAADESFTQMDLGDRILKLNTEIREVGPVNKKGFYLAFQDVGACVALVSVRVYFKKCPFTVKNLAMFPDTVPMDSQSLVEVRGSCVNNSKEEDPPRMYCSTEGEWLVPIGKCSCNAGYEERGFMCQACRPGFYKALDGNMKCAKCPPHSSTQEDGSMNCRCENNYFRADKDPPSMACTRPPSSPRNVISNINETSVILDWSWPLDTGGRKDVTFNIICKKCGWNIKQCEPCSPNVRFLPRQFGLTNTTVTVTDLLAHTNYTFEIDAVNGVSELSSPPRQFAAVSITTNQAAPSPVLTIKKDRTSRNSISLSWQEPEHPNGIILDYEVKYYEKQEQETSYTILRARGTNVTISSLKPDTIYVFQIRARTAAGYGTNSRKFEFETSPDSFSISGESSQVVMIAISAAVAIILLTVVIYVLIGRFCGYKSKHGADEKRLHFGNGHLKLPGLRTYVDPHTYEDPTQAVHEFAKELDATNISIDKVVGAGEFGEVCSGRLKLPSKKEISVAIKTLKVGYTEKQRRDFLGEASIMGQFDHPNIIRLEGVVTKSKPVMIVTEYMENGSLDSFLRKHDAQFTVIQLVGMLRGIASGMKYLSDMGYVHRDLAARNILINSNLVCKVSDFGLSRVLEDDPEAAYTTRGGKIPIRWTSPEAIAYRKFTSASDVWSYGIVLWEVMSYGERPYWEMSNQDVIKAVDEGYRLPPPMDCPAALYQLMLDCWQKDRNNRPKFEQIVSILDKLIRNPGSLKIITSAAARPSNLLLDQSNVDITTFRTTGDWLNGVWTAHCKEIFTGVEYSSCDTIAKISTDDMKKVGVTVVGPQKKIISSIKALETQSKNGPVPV
Measured attribute: IC50

# input Enter IC50 (test system EPHA3 (Homo sapiens, UniProt P29320)) for CCS(=O)(=O)Cc1cnc(Oc2c(F)cc(F)cc2OCCCCOc2ccc(/C=C/c3cc(OC)cc(OC)c3)cc2)c(-c2cc(C)c3c(=O)[nH]ccn23)c1 [BST-4]
# output > 10 µM

* * *

# Test target: RET (Homo sapiens, UniProt P07949)
# Sequence (P07949 29-1114): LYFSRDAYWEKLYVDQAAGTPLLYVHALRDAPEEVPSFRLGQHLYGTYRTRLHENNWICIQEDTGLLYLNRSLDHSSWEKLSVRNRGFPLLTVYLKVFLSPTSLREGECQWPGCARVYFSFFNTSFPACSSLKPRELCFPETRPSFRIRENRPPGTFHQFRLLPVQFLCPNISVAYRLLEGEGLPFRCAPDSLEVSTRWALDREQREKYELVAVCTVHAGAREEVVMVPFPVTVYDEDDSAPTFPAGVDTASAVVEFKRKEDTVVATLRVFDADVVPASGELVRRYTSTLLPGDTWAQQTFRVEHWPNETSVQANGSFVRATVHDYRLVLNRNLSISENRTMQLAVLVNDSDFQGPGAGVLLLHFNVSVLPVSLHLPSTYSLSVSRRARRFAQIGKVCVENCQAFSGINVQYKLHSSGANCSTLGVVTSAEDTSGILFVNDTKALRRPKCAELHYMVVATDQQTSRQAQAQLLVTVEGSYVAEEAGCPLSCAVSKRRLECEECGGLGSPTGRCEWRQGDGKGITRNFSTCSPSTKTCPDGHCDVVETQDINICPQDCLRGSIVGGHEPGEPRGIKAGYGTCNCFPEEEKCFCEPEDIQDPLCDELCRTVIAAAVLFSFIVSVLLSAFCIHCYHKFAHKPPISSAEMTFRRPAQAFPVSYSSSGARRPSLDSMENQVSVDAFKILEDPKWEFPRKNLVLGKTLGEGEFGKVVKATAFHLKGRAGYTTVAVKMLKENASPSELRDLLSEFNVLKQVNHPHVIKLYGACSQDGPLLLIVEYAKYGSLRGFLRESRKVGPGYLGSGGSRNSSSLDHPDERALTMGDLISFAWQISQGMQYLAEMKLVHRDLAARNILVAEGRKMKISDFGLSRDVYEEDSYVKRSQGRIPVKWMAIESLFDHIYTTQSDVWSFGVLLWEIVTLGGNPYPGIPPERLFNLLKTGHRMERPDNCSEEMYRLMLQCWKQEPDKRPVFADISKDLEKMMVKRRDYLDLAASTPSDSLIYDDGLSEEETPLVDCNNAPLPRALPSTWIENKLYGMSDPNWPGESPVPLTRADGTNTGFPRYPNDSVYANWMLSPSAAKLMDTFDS
pIC50: −log10 of the molar value.
Measured attribute: pIC50

# input Tell me pIC50 of "CCS(=O)(=O)Cc1cnc(Oc2c(F)cc(F)cc2OCCCCOc2ccc(/C=C/c3cc(OC)cc(OC)c3)cc2)c(-c2cc(C)c3c(=O)[nH]ccn23)c1" when tested on RET (Homo sapiens, UniProt P07949).
# output < 5.00

* * *

# Test target: EPHA1 (Homo sapiens)
# Sequence (P21709 26-976): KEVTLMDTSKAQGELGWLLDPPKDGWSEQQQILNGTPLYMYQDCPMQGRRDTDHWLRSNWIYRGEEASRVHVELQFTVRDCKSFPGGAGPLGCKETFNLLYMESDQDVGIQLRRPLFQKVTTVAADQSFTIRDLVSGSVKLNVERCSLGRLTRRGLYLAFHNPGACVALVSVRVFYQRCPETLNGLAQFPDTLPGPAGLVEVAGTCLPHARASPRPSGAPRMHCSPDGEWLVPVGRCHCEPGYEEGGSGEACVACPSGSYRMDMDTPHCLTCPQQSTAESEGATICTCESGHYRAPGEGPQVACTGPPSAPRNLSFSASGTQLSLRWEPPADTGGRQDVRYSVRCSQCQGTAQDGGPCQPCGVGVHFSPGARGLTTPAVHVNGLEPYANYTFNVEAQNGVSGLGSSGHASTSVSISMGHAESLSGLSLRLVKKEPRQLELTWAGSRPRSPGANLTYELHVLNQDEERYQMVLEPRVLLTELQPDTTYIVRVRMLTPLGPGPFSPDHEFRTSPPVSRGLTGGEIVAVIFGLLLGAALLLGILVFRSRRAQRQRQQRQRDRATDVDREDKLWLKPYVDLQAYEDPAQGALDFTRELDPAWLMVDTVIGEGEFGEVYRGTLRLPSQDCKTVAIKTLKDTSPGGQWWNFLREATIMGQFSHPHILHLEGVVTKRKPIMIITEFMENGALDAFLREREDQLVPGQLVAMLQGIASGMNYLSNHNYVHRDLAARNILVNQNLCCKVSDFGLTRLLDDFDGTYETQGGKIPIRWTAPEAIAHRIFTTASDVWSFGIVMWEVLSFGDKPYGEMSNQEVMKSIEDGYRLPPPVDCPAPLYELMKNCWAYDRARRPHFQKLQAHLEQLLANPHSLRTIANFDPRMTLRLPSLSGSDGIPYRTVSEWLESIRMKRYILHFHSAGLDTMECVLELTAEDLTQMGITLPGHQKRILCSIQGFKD
Measured attribute: IC50

# input Tell me IC50 reported for "CCS(=O)(=O)Cc1cnc(Oc2c(F)cc(F)cc2OCCCCOc2ccc(/C=C/c3cc(OC)cc(OC)c3)cc2)c(-c2cc(C)c3c(=O)[nH]ccn23)c1"
# output > 10 µM
